- Assay remarks: Human HepG2 cell viability assay in 384 well format
- Format: toxicity, cell-based
- Parameters: dose 125 nL, time 70.5 hour; concentration not given beside the values
- Setup conditions: HepG2 cells, read-out: Inhibition
List of cytotoxicity at 70.5 h values.
Property: cytotoxicity at 70.5 h (%)

Compound: CC(=O)N1CCC2(CC1)CN(C(=O)c1cccnc1)c1ccc(F)cc12
Property: cytotoxicity at 70.5 h
Value observed: -3.83
//
Compound: Cc1cccc(CN2CCCC(O)(CNCc3cccc(F)c3)C2=O)c1 (stereo unspecified)
Property: cytotoxicity at 70.5 h
Value observed: -5.44
//
Compound: Cc1cc(C(F)(F)F)nc(C2COCCN2S(C)(=O)=O)n1 (stereo unspecified)
Property: cytotoxicity at 70.5 h
Value observed: -6.03
//
Compound: COc1c(CNCCc2c[nH]c3cc(F)ccc23)c(C(C)C)nn1C
Property: cytotoxicity at 70.5 h
Value observed: 4.03
//
Compound: Cn1nccc1C1CCN(CC(=O)NCC2CC2)CC1
Property: cytotoxicity at 70.5 h
Value observed: -8.55
//
Compound: CC(C)NC(=O)N1CCC2(CC1)CCn1c(C3CC3)cnc12
Property: cytotoxicity at 70.5 h
Value observed: 51.2
//
Compound: Cc1[nH]ncc1C(=O)N1CCCC(c2ccn[nH]2)C1 (stereo unspecified)
Property: cytotoxicity at 70.5 h
Value observed: -12.2
//
Compound: CC[C@@H]1N(Cc2ccc(F)cc2)CCC[C@]12CCC(=O)N2C
Property: cytotoxicity at 70.5 h
Value observed: -9.15
//
Compound: CC(C)N1Cc2c(C(=O)N3CCN(C)CC3)nn(C)c2C1
Property: cytotoxicity at 70.5 h
Value observed: -0.433
//
Compound: Cc1cc(CN2CCC3(CC2)CC(Nc2ncccn2)CO3)nn1C (stereo unspecified)
Property: cytotoxicity at 70.5 h
Value observed: -35.4
//
Compound: COc1c(CNCc2cccnc2OC(C)C)c(C(C)C)nn1C
Property: cytotoxicity at 70.5 h
Value observed: -8.38

---

- Assay remarks: Human HepG2 cell viability assay in 384 well format
- Format: toxicity, cell-based
- Design: dose 125 nL, time 70.5 hour; concentration not given beside the values
- Setup conditions: HepG2 cells, read-out: Inhibition
Property: cytotoxicity at 70.5 h

Compound: COc1cccc2c1OCCCN(Cc1c[nH]nc1C(=O)O)C2
Value observed: -9%
//
Compound: Cc1noc(C)c1CN1CCO[C@H]2CN(Cc3cnn(C)c3)C[C@H]21
Value observed: -4.66%
//
Compound: Cc1nc(CN2CCN(c3ncnc4ccccc34)CC2)no1
Value observed: 4.67%
//
Compound: CCCc1nc(NCCCn2cccn2)c2c(n1)c(C)nn2CC
Value observed: -4.19%
//
Compound: Cc1nc(NC(=O)CCN2C(=O)c3ccccc3NC2C(C)C)sc1C (centres undefined)
Value observed: -0.712%
//
Compound: CC(C)c1nccc(CN2CCC(O)(CN3CCCCC3)C2)n1 (centres undefined)
Value observed: -4.46%
//
Compound: Cc1noc(C)c1CN1CCOC2(CCCN(c3ccccn3)C2)C1 (centres undefined)
Value observed: -8.65%
//
Compound: CCN1CC(COC(=O)c2ccc(Br)cc2F)CC1=O (centres undefined)
Value observed: -6.68%
//
Compound: COc1ccc(Oc2ccc(CNC(=O)C3CCS(=O)(=O)C3)cn2)cc1 (centres undefined)
Value observed: -6.05%
//
Compound: CCc1nc(C2CCCN2CC(=O)Nc2cc(C)on2)no1 (centres undefined)
Value observed: -6.96%
//
Compound: CCOC(=O)c1cn(CC(O)c2ccccc2OC)nn1 (centres undefined)
Value observed: 7.58%
//
Compound: CNC(=O)CN1CCC12CCN(C(=O)Cc1ccccc1)C2 (centres undefined)
Value observed: -17.2%
//
Compound: Cc1nccn1CCC1CCCCN1Cc1ccc(O)cc1Cl (centres undefined)
Value observed: 15.6%
//
Compound: CC(O)CN1CCN(C(=O)c2cccn2Cc2ccccc2)CC1 (centres undefined)
Value observed: -1.63%
//
Compound: CC(C)CCc1noc(CN2CCCC(CNS(N)(=O)=O)C2)n1 (centres undefined)
Value observed: -1.48%
//
Compound: c1cc(-c2nnc([C@H]3CCN(C4CCOCC4)C3)o2)ccn1
Value observed: 2.55%
//
Compound: COc1nccnc1N1CCN(Cc2ccc(F)cc2)C(=O)C1
Value observed: 24.6%
//
Compound: C[C@@H]1CN(Cc2cc3ccccc3n2C)CC[C@]1(C)O
Value observed: 16.1%
//
Compound: Cc1nc[nH]c1CN1CCN(C(=O)CCC(F)(F)F)[C@H]2CS(=O)(=O)C[C@H]21
Value observed: -9.24%
//
Compound: Cc1nnc(N2CCCC3(CN(Cc4ccncc4)CCO3)C2)o1 (centres undefined)
Value observed: -2.14%
//
Compound: Cc1ccc(-c2n[nH]cc2CNCC2CCc3nnc(C)n3C2)cc1 (centres undefined)
Value observed: -0.696%
//
Compound: O=C(C1CCC1)N1CC[C@H](O)[C@@H]1Cc1cccnc1
Value observed: 1.53%
//
Compound: CC(C)n1cnnc1CN(C)CC1CCOC1 (centres undefined)
Value observed: -11.8%
//
Compound: Cn1ccnc1CN1CCC(c2nnc(Cn3cccn3)n2C)CC1
Value observed: 24.7%

---

List of cytotoxicity at 70.5 h values.
- Assay remarks: Human HepG2 cell viability assay in 384 well format
- Format: toxicity, cell-based
- Design: dose 125 nL, time 70.5 hour; concentration not given beside the values
- Setup conditions: HepG2 cells, read-out: Inhibition

Compound: CC(C)[C@H]1CN(c2ccncc2)C[C@@H]1NS(=O)(=O)N(C)C
cytotoxicity at 70.5 h (%): -4.27

Compound: Cc1noc(C)c1-c1cccc(C2CN(CC(=O)N(C)C)CCO2)n1 (stereo unspecified)
cytotoxicity at 70.5 h (%): -4.85

Compound: Cc1cc(C2NC(=O)CN2Cc2ccc(Br)cc2)cc(C)c1O (stereo unspecified)
cytotoxicity at 70.5 h (%): 0.666

Compound: COCCc1noc(CN(C)c2nccc(C)n2)n1
cytotoxicity at 70.5 h (%): -6.87

Compound: O=C(c1ccc[nH]1)N1CCOC2(COCCN(c3cncnc3)C2)C1 (stereo unspecified)
cytotoxicity at 70.5 h (%): -7.73

Compound: O=C(NCc1ccc(OCC2CC2)nc1)c1c(F)cccc1F
cytotoxicity at 70.5 h (%): -3.71

Compound: O=C1NCC2(CCCN(Cc3ccc(Cl)s3)C2)Oc2ccccc21 (stereo unspecified)
cytotoxicity at 70.5 h (%): -12.5

Compound: CN(CC1(C)COC1)C(=O)c1cc(-c2ccnn2C)nc2ccccc12
cytotoxicity at 70.5 h (%): -0.845

Compound: CC(C)c1ccc(CS(=O)(=O)CC(=O)NCc2ccccc2F)cc1
cytotoxicity at 70.5 h (%): -17.3

Compound: Clc1cccc(C2CCN(c3ncnc4c3CCNC4)C2)c1 (stereo unspecified)
cytotoxicity at 70.5 h (%): -1.22

Compound: Cc1nnc(C(C)N2CCN(Cc3ccc4c(c3)OCO4)CC2)o1 (stereo unspecified)
cytotoxicity at 70.5 h (%): 16.9

---

List of cytotoxicity at 70.5 h values.
- Assay remarks: Human HepG2 cell viability assay in 384 well format
- Type: toxicity, cell-based
- Set-up: dose 125 nL, time 70.5 hour; concentration not given beside the values
- Setup conditions: HepG2 cells, read-out: Inhibition
Property: cytotoxicity at 70.5 h (%)

Compound: CCc1ccc(CN(Cc2ccco2)C(C)C(C)C)nc1 (configuration not stated)
Value observed: 1.59

Compound: COCCN1CCN(Cc2c(C3CCNCC3)[nH]c3ncccc23)CC1
Value observed: -2.48

Compound: CC(C)c1nc2n(n1)CC(NCc1cc3ccccc3o1)CC2 (configuration not stated)
Value observed: 12.7

Compound: COc1cccc(-c2cc(C(=O)Nc3nc[nH]n3)[nH]n2)c1
Value observed: -11.1

Compound: O=C(CSC1=NS(=O)(=O)c2cc(F)ccc2N1)Nc1cccc(Cl)c1
Value observed: -2.86

Compound: Cc1ncnc(NCc2cc3n(n2)CCCN(S(C)(=O)=O)C3)c1C
Value observed: -12.3

Compound: CC(C)(C)C(=O)NCCNc1cc(N2CCCC2)ncn1
Value observed: -8.01

Compound: CC(C)c1nccc([C@@H]2C[C@@H]3CCN(Cc4ccco4)C[C@H]3O2)n1
Value observed: 38.3

Compound: CCNC(=O)NC(=O)CN1CCOC(c2ccc(Br)cc2)C1 (configuration not stated)
Value observed: -3.93

Compound: CCC1=N[C@@]2(CC[C@@H]3CN(S(=O)(=O)CC)C[C@@H]32)C(=O)N1CCOC
Value observed: -2.77

Compound: OC(CN(Cc1ccccc1)Cc1ccncc1)c1cccs1 (configuration not stated)
Value observed: 21.6

Compound: CC(C)CC(=O)Nc1cc(C(=O)N(C)C(C)C)ccc1Cl
Value observed: -8.37

Compound: Cc1cc(C(=O)N2CCC3(C2)CN(c2ccsc2)C(=O)CN3C)[nH]n1 (configuration not stated)
Value observed: -7.61

Compound: O=C(CC1=CSC2=NCCCN12)N1CCCCC1c1cccc(F)c1 (configuration not stated)
Value observed: 20.1

Compound: Cn1ccnc1CCC1CCCCN1Cc1nccn1C (configuration not stated)
Value observed: 14.9

Compound: CN(C)C(=O)N1CC2(CCN(CC3CC3)CC2)c2cc(F)ccc21
Value observed: 19.9

Compound: Fc1cccc(-c2nc(CN3CCCC3Cn3cncn3)co2)c1 (configuration not stated)
Value observed: 8.65

Compound: Cc1ccnc(C2COCCN2C)n1 (configuration not stated)
Value observed: -3.5

Compound: CN1CCN(CCCNC(=O)c2cc(Cl)c3c(c2)OCO3)CC1
Value observed: -6.03

Compound: COCCN(CCOC)Cc1nc2c(cnn2C)c(=O)[nH]1
Value observed: 7

Compound: Cc1cc(C(=O)N2CCCC3(CCCN3Cc3cccnc3)C2)[nH]n1 (configuration not stated)
Value observed: 12.8

Compound: c1cnc(N2C[C@H]3CCN(CC4CC4)C[C@H]3C2)cn1
Value observed: 3.82

Compound: CC(O)CN1CCC(CNCc2ccccc2Cl)CC1 (configuration not stated)
Value observed: -7.56

Compound: CC(C)Cn1cncc1CNC1CCSC1 (configuration not stated)
Value observed: 21.1

Compound: CC(C(=O)N1CCN(Cc2ccc(C#N)cc2)CC1)n1ccnc1 (configuration not stated)
Value observed: -0.223

Compound: CC(C)CC(C)NCCCN1CCCN(C)CC1 (configuration not stated)
Value observed: 21.1

Compound: COC(=O)c1sc(C(F)(F)F)cc1OC
Value observed: -12.4

Compound: COc1ccc(N2CCC(NS(=O)(=O)N(C)C(C)C)CC2)cc1
Value observed: 7.03

Compound: COCC1CCN(S(=O)(=O)N2C[C@@H](C)[C@@](C)(O)C2)CC1
Value observed: -0.99

Compound: COc1ccc(CN(C(=O)C(C)SC)c2cnn(C)c2)c(OC)c1 (configuration not stated)
Value observed: 1.09

Compound: Cc1cc(C(=O)N2CCCCC2C)ccc1NCCCO (configuration not stated)
Value observed: -17.1

Compound: c1ccc(CN2CCCC2Cn2cncn2)nc1 (configuration not stated)
Value observed: 7.22

Compound: COc1ccc(COCC(O)CSc2ccc(NC(C)=O)cc2)cc1 (configuration not stated)
Value observed: -10.5

Compound: CC(C(=O)O)N1CCc2onc(-c3ccc(F)c(F)c3)c2C1 (configuration not stated)
Value observed: -6.87

Compound: CC1(C)CN(C(=O)c2ccc3nncn3c2)CCS1
Value observed: -5.72

Compound: O=C(NCC1CC1)c1cc2c(s1)CCN2C(=O)c1cccnc1
Value observed: -8.04

Compound: Cc1nc(C2CCCN2CCS(C)(=O)=O)no1 (configuration not stated)
Value observed: 21.3

Compound: Cn1c(CCCNC(=O)Nc2cn[nH]c2)nc2ccccc21
Value observed: -3.29

Compound: CNC(=O)CC1CCN(C(=O)NCc2cn3c(C)cccc3n2)CC1
Value observed: -14.3

Compound: Cc1cc(C)c2c(N3CCN(C(=O)N4CCOCC4)CC3)ncnc2n1
Value observed: 30.5

Compound: CN(c1cccnn1)[C@@H]1CC[C@@H]2CN(Cc3cccc(C(=O)O)c3)C[C@@H]21
Value observed: -6.81

Compound: Cc1nccn1-c1ccc(NS(=O)(=O)c2cnn(C)c2)cn1
Value observed: -4.84

Compound: O=c1ccc2c(n1CC1CC1)CCN(c1ncccn1)CC2
Value observed: -4.49

Compound: CCc1ccc(C(=O)Nc2ccc3c(c2)N(C)CCN(C)C3)o1
Value observed: -8.89

Compound: O=C(NCC1(O)CCOCC1)c1ccc(F)cc1
Value observed: -4.94

Compound: COc1ccc(C(=O)N2CC[C@@]3(O)CCCC[C@H]3C2)cc1OC
Value observed: 5.36

Compound: Cc1ccc(CN2C[C@@H]3COC[C@@H](NS(C)(=O)=O)[C@@H]3C2)o1
Value observed: -18.3
